Test: RS-butanediol concentration in blood of pigs
Assay type: in vivo, pig
Conditions: pig, blood; intragastric bolus, 15% of daily caloric requirements; read-out: concentration of butanediol in the blood, peak
Result Type: Cmax (µM)
Please give a number only; it is taken to be in µM.

Q: Consider the compound CC(O)CCO (racemic) [RS-butanediol, 1,3-butanediol] and give its recorded Cmax.
Ans: 25000
